Target of assay: LGR8 (Homo sapiens)
Construct: Human LGR8 cDNA containing the complete coding region was PCR amplified; expressed in transfected cells
Sequence (Q8WXD0 whole entry): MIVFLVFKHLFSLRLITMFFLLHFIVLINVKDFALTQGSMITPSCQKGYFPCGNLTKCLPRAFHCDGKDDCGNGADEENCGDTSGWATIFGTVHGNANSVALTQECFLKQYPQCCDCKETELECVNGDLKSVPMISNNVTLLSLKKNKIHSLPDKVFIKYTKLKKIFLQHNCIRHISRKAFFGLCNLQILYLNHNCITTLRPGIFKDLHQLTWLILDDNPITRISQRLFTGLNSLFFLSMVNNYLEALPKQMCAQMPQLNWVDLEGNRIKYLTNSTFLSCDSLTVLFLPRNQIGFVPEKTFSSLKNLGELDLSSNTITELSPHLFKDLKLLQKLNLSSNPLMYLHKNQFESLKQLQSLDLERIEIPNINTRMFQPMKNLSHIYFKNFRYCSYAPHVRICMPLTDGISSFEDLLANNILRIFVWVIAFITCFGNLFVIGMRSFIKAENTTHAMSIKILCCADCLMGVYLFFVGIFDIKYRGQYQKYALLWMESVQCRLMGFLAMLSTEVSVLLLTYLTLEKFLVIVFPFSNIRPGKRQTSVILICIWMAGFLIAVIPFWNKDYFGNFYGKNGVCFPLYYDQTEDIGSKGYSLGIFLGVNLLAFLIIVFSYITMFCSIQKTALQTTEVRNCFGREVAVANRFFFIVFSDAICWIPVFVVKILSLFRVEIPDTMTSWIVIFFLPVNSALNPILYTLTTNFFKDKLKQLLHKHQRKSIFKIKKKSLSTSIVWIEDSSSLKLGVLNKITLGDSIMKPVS
Protocol text: Stimulation of β-galactosidase expression in SK-N-MC/β-gal cells
Assay type: cell-based
Details: highest concentration tested 1 μM
Measurement type: activation of LGR8, in words

Substance: R3/I5: chimeric polypeptide: human relaxin-3 B-chain and INSL5 A-chain; mature polypeptide SEQ ID NO:23 (RAAPYGVRLCGREFIRAVIFTCGGSRWQDLQTLCCTDGCSMTDLSALC; Human Relaxin-3/Insulin-like 5 chimeric mature polypeptide)
Target of assay: LGR8 (Homo sapiens)
Experimental value: inactive
//
Substance: R3/I6: chimeric polypeptide: human relaxin-3 B-chain and INSL6 A-chain; mature polypeptide SEQ ID NO:24 (RAAPYGVRLCGREFIRAVIFTCGGSRWGYSEKCCLTGCTKEELSIAC; Human Relaxin-3/Insulin-like 6 chimeric mature polypeptide)
Target of assay: LGR8 (Homo sapiens)
Experimental value: inactive
